For each entry below, report its IC50 value.
Target: Avi-KRAS G12V (1-169) GppNHp/RAF1 RBD-3xFLAG (52-151) (Homo sapiens, UniProt P01116, G12V)
Construct: Avi-KRAS G12V (1-169)
Sequence (P01116 1-169 isoform P01116-2 G12V): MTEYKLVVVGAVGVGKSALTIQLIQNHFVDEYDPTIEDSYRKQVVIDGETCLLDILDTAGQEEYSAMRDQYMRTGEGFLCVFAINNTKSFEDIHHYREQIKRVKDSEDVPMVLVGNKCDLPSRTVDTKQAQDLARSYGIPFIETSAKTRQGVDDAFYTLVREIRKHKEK
Assay: Raf1-KRAS G12V-GppNHP disruption HTRF assay (Biological Example 1)
Type: binding
Details: KRAS G12V-GppNHp/RAF1 RBD HTRF

These recorded examples may help you get a feel for the data.
C[C@@H]1[C@H](N(C)c2nc(OC[C@@]34CCCN3C[C@H](F)C4)nc3c(F)c(-c4ccc(F)c5sc(N)c(C#N)c45)c(C(F)(F)F)cc23)CCN1C(=O)C(F)F [Compound 458]    100 to 1000 nM
C[C@@H]1[C@H](N(C)c2nc(OC[C@@]34CCCN3C[C@H](F)C4)nc3c(F)c(-c4ccc(F)c5sc(N)c(C#N)c45)c(C(F)(F)F)cc23)CCN1C(=O)C1CC1 (atropisomer, axis not shown) [Compound 333]    100 to 1000 nM
Cc1nc(OC[C@@]23CCCN2C[C@H](F)C3)nc2c(F)c(-c3ccc(F)c4sc(N)c(C#N)c34)c(C(F)(F)F)cc12 [Compound 318]    1000 to 10000 nM
CCN(c1nc(OC[C@@]23CCCN2C[C@H](F)C3)nc2c(F)c(-c3ccc(F)c4sc(N)c(C#N)c34)c(C(F)(F)F)cc12)[C@H]1CCN(C(=O)C(C)C)C1 (atropisomer, axis not shown) [Compound 468]    > 10000 nM
CCC(=O)N1CC[C@](C)(N(C)c2nc(OC[C@@]34CCCN3C[C@H](F)C4)nc3c(F)c(-c4ccc(F)c5sc(N)c(C#N)c45)c(C(F)(F)F)cc23)C1 [Compound 506]    1000 to 10000 nM
N#Cc1c(N)sc2c(F)ccc(-c3c(C(F)(F)F)cc4c(N5CCn6cnnc6C5)nc(OC[C@@]56CCCN5C[C@H](F)C6)nc4c3F)c12 [Compound 294]    100 to 1000 nM
CCN(c1nc(OC[C@@]23CCCN2C[C@H](F)C3)nc2c(F)c(-c3ccc(F)c4sc(N)c(C#N)c34)c(C(F)(F)F)cc12)[C@H]1CCS(=O)(=O)C1 (atropisomer, axis not shown) [Compound 492]    100 to 1000 nM
CN1C[C@H](N(C)c2nc(OC[C@@]34CCCN3C[C@H](F)C4)nc3c(F)c(-c4ccc(F)c5sc(N)c(C#N)c45)c(C(F)(F)F)cc23)CC1=O [Compound 285]    100 to 1000 nM
CN(c1nc(OC[C@@]23CCCN2C[C@H](F)C3)nc2c(F)c(-c3ccc(F)c4sc(N)c(C#N)c34)c(C(F)(F)F)cc12)[C@@H]1CNC(=O)C1 [Compound 340]    100 to 1000 nM

Would you kindly look at the next entry?
Ask | Query (molecule): N#Cc1c(N)sc2c(F)ccc(-c3c(Cl)cc4c(N5C[C@H]6C[C@@H]5CO6)nc(OC[C@@]56CCCN5C[C@H](F)C6)nc4c3F)c12 [Compound 364] ; field requested: IC50
Reply | 1000 to 10000 nM
